# ASSAY_NOTES: label from the status in PepcDB records
MEASUREMENT_NAME: protein production

INSERT INTO measurements (chain, measurement_name, result_value) VALUES
  ('WSLQPLADMSAAEFRDWQVLLENRTGVVLNEQRRTFLQASLTARMRELGIGDYHSYYRQVTDGPRGAVEWATLLDRLTVQETRFFRHPPSFELLERYLGERLRREGMPRPWALWSVGCSSGEEPYSLAMCAAQVLRGQEREDFFGVTGTDISLHALQRARQANYPARKLEQLEAGLVERYCERQADGSFSVKTILTERVCCARLNVLDLAKAPWSGMDVIFCQNLLIYFRRWRRREILNRLAERLAPGGLLVIGVGEVVDWSHPELEPVADERVL', 'protein production', 'failed'),
  ('MAGCRTNAKGNAMPISIRIGNQDLTVDVSSLGAEMQALTSGDGRSWLWTGDAAFWTGRSPILFPIVGKAPDDKIAIDGTVYPMAQHGFARRSEFALAASTETMCRFELAASEATRAVYPFDFQLAVVHAVEGRALTVTAEVTNRDPKPMPFGLGFHSAFAWPLPGASGRDHIVTLDNKGEPALVRLEGGLINPAPLPSPFNAGRLVLDHSMFEQDAMIFPDGAGEGLAYGSEGGPAMRFHFKNLPNLALWTKPGAPFLCIEPWHGTAAEAGASSELSKRPSTTILAPGAVASFAFTVEIPQ', 'protein production', 'failed');

###

# ASSAY_NOTES: label from the status in PepcDB records
MEASUREMENT_NAME: protein production

INSERT INTO results (chain, result_value) VALUES
  ('MQMMEQFYPKVSIVIPVYNGSDYMREAIDSALGQTYGNIEVIVVNDGSSDGGLTHEIALSYGGNIRYFAKENGGVASALNFAIRMMDGEYFSWLSHDDIYYPNKIETQIGYLAEHDRNAILYSDFELIDCLSKVIKPVNAGEIPPEQFLYNLITIGHLNGCTLLVPKRCFEETGFFDESLRSTQDYALWFTFAQKYRFEQIRKVLVKYRTHSNQGSYVIPTHSQEVNDLHIWFLEEASERGLLPIPDEGASRFFLEVAGIYKKRGIYRAADYSCSMALRHMRDEGGLALLRELPRVAYLKYYFRKKQFKSYLRELRRSTVRRSLLEHHHHHH', 'not failed'),
  ('MRKSVSRASSIITGLLVMSIGLNSTEYLSIYKLILFNKKTCMKLKTHFVFSIGLLTLASSFFGFSLIISAIISVLGNTLIDRLGHKEISTRYGKIPVRTPLTHTLPRSVFWGLISSMPVIIVLGLAYGMLNTKILTALIDGILVGPSHMLLDVFTENGIYVKRNGKWKRVALAHFSYDSSLINGLAIVLGIIMIFAAMELHH', 'failed'),
  ('MAKNYYDITLALAGICQSARLVQQLAHQGHCDADALHVSLNSIIDMNPSSTLAVFGGSEANLRVGLETLLGVLNASSRQGLNAELTRYTLSLMVLERKLSSAKGALDTLGNRINGLQRQLEHFDLQSETLMSAMAAIYVDVISPLGPRIQVTGSPAVLQSPQVQAKVRATLLAGIRAAVLWHQVGGGRLQLMFSRNRLTTQAKQILAHLTPEL', 'not failed'),
  ('MKISVPTYPFARERYWISVPEMKTSTVNHILHPLVHRNTSDFTEQRFSSVFTGTEFFLSDHVVQGQKILPGVAYLEMAREAAEKAAGDLDGEQRVVSLKDIVWVRPITIESEPKEIHIGLFPEDNGDISFDIYSSSEHKEEALTIHCQGRAVISDEAETSILNLSSIQTECSLDTVTSEQCYAAFRKIGLDYGEGYQGIEKVYVGKDQLLAKISLPAFLKNDKQHFALHPSLMDSAFHATVGFIVSSVNAAGQAQTLSLPFALQEVDIFSPCPEKIWSYIRYSSDSLEHHHHHH', 'failed'),
  ('MIRKKQTEKPSEWDPPAPSTVYIKIKNIPYETFKTKLNQGLVTTDLDQIRYRLEKHIYCCGVCSKHVNGYCVITNRKAEPGWICKSFVPKEEFIYLDSRPDRKDPAEFRYLSETGLEKDYIESAGARERRHGNEGTKALYDEGVTLYRQGRLKLALEAFDSVLEANPLDFAALFHKGNALLKLKRYEEALEVFERASEINQENAGLWTNLGFIFTKLERFRDSLEAFEKSISLNPVQKNAWEGRDAVIARVRLCEERLRESEEALKKNPEDPDTLFKIGKIHLRLGEQEKAIQAFKKALEIKPENAEAWQFRGKVLFKAGSEKEALHAFEKATRLKPDYAEAWFEKGNAFLKLENLKGAENAFKIAARLWDSKGIKSKAESARDKVKRLHSSN', 'failed'),
  ('DNDAEALLWSELRDRRLNGFKFVRQVAVGPYFADFACRDERLVVEVDGSQHQIGSGDARRDKFMVMNGWSVLRFWNTDIFNDRAAVLETIVAVLEKRLVREVRSAD', 'failed');
